# method_summary: pKa determination by titration with aqueous potassium hydroxide
# details: water
This section presents molecules with their documented pKa values.
Just the number, please.

molecule | value
CCC(CO)(CO)C(=O)O [DMBA, 2,2-bis-(hydroxymethyl)butanoic acid, reference compound] | 4.55

Please find the next molecule below.
In: Report pKa for CC(CO)(CO)C(=O)O [DMPA, 2,2-bis-(hydroxymethyl)propanoic acid, reference compound]
Out: 4.64
